# appliedConditions: 293.15 K; 101.33 kPa; Liquid; Vibrating tube method
Numbers after ± are expanded uncertainties.
observedProperty: mass density
Answer with the value and then the unit.

- structureAsSmiles: "O=C1CCCCC1"
  observedProperty: "mass density"
  reportedResult: "946.713 ± 0.23 kg/m3"
- structureAsSmiles: "CCC(C)=O"
  observedProperty: "mass density"
  reportedResult: "805.058 ± 0.24 kg/m3"
- structureAsSmiles: "ClC(Cl)C(Cl)Cl"
  observedProperty: "mass density"
  reportedResult: "1593.65 ± 2.3 kg/m3"
- structureAsSmiles: "CCCCCC(C)=O"
  observedProperty: "mass density"
  reportedResult: "815.497 ± 0.64 kg/m3"

Provide measured mass density value, entry: ClCCCl
1252.77 ± 0.44 kg/m3

###

# appliedConditions: 288.15 K; 101.33 kPa; Liquid; Vibrating tube method
observedProperty: mass density (kg/m3)
Give bare numbers, in kg/m3.

- structureAsSmiles: "O=C1CCCCC1"
  mass density / kg/m3: 951.178

Go through the items and report each one's mass density.
1. ClC(Cl)C(Cl)Cl
2. CCC(C)=O
3. CCCCCC(C)=O
4. ClCCCl

1: 1601.45; 2: 810.262; 3: 819.786; 4: 1259.99

###

# appliedConditions: 303.15 K; 101.33 kPa; Liquid; Vibrating tube method
Numbers after ± are expanded uncertainties.
observedProperty: mass density

Solved cases (3 shown):
- structureAsSmiles: "O=C1CCCCC1"
  reportedResult: "937.767 ± 0.23 kg/m3"
- structureAsSmiles: "ClC(Cl)C(Cl)Cl"
  reportedResult: "1578.07 ± 2.3 kg/m3"
- structureAsSmiles: "CCC(C)=O"
  reportedResult: "794.565 ± 0.24 kg/m3"

Go through the items and report each one's mass density.
1. CCCCCC(C)=O
2. ClCCCl

1: 806.887 ± 0.63 kg/m3; 2: 1238.18 ± 0.43 kg/m3

###

Could you please report measured mass density for the items listed next?
# appliedConditions: 308.15 K; 101.33 kPa; Liquid; Vibrating tube method
Give bare numbers, in kg/m3.

Solved cases (4 shown):
- structureAsSmiles: "CCC(C)=O"
  observedProperty: "mass density"
  reportedResult: 789.273
- structureAsSmiles: "ClCCCl"
  observedProperty: "mass density"
  reportedResult: 1230.84
- structureAsSmiles: "CCCCCC(C)=O"
  observedProperty: "mass density"
  reportedResult: 802.562
- structureAsSmiles: "O=C1CCCCC1"
  observedProperty: "mass density"
  reportedResult: 933.285

Provide measured mass density value, entry: ClC(Cl)C(Cl)Cl
1570.27
